System: L1210 leukemia ip in BDF1 mice, survival T/C
Assay: NCI In Vivo Anticancer Drug Screen. Data for tumor model L1210 Leukemia (intraperitoneal) in B6D2F1 (BDF1) mice
Settings: endpoint: mean survival time; dose: 400.0 mg/kg/injection; schedule: Q01DX009 (ip); vehicle: Klucel (hydroxypropylcellulose) (HPC); higher = longer survival
Inconclusive results and toxic doses are left out.
Parameter: T/C. Scope: all listed entries.
property-measured: T/C

[[record]]
molecule = "CC(OC(C)c1ccccc1)c1ccccc1 (stereo unspecified)"
property_measured = "T/C"
endpoint_value = "101 % of control"

[[record]]
molecule = "CN(C)c1ccc(C=O)c(Br)c1"
property_measured = "T/C"
endpoint_value = "103 % of control"

[[record]]
molecule = "CCOC(=O)c1ccc(NC(=O)Oc2ccc3c(C)cc(=O)oc3c2)cc1"
property_measured = "T/C"
endpoint_value = "89 % of control"

[[record]]
molecule = "Oc1ccccc1C=Nc1ccc(Cl)c(Cl)c1"
property_measured = "T/C"
endpoint_value = "96 % of control"

[[record]]
molecule = "O=C(Nc1ccccc1F)N(CCO)C1CCCCC1"
property_measured = "T/C"
endpoint_value = "101 % of control"

[[record]]
molecule = "O=C1c2c(I)c(I)c(I)c(I)c2C(=O)N1CCO"
property_measured = "T/C"
endpoint_value = "104 % of control"

[[record]]
molecule = "Cc1cc(Cl)ccc1NC(=O)c1ccccc1Cl"
property_measured = "T/C"
endpoint_value = "89 % of control"

[[record]]
molecule = "O=C(Nc1ccc([N+](=O)[O-])cn1)Nc1cc([N+](=O)[O-])ccc1F"
property_measured = "T/C"
endpoint_value = "100 % of control"

[[record]]
molecule = "S=C(N/N=C/c1ccccc1Cl)Nc1ccccc1"
property_measured = "T/C"
endpoint_value = "101 % of control"

[[record]]
molecule = "O/N=C1/CCCC/C1=C/C=C/c1ccccc1"
property_measured = "T/C"
endpoint_value = "97 % of control"

[[record]]
molecule = "COC(=O)CCCCC(=O)OCC#CC#CCOC(=O)CCCCC(=O)OC"
property_measured = "T/C"
endpoint_value = "98 % of control"

[[record]]
molecule = "Cc1ccc(S(=O)(=O)N(CCC#N)CCC#N)cc1"
property_measured = "T/C"
endpoint_value = "96 % of control"

[[record]]
molecule = "O=C1Nc2ccc(Cl)cc2C(c2ccccc2)=NC1O (stereo unspecified)"
property_measured = "T/C"
endpoint_value = "91 % of control"

[[record]]
molecule = "COc1cc([N+](=O)[O-])ccc1NC(=O)Oc1ccc(NC(C)=O)cc1"
property_measured = "T/C"
endpoint_value = "91 % of control"

[[record]]
molecule = "CN(Cc1ccc(Cl)cc1)C(=O)NCCCCCCNC(=O)N(C)Cc1ccc(Cl)cc1"
property_measured = "T/C"
endpoint_value = "92 % of control"

[[record]]
molecule = "CC(O)c1ccc(-c2ccccc2)cc1 (stereo unspecified)"
property_measured = "T/C"
endpoint_value = "111 % of control"

[[record]]
molecule = "CCN(C(=S)Nc1cccc2ccccc12)c1ccccc1"
property_measured = "T/C"
endpoint_value = "92 % of control"

[[record]]
molecule = "CON(C)c1nc(Cl)nc(N(C)OC)n1"
property_measured = "T/C"
endpoint_value = "105 % of control"

[[record]]
molecule = "CCOC(=O)C(C(=O)CC)=P(c1ccccc1)(c1ccccc1)c1ccccc1"
property_measured = "T/C"
endpoint_value = "110 % of control"

[[record]]
molecule = "CCOc1ccc(/C=C2\\N=C(c3ccccc3)OC2=O)cc1"
property_measured = "T/C"
endpoint_value = "93 % of control"

[[record]]
molecule = "C#CCOC(=O)Nc1cccc(Cl)c1"
property_measured = "T/C"
endpoint_value = "95 % of control"

